- System: Anabaena sp.
- Assay overview: Detection of bioactive molecules with Anabaena sp.: inhibition of photosynthetic fluorescence (Luminotox)
- Type: cell-based
- Condition description: 10 min; 1 ppm; 10 min ambient light followed by 10 min green light; neutral pH; read-out: Inhibition obtained at 1 ppm (followed by 10 min green light)
Attribute measured: inhibition at 1 ppm

* COP(=O)(OC)O/C(C)=C/C(=O)N(C)C | 17%
* O=C(O)CNCP(=O)(O)O [glyphosate] | 7%
* CN(C)[C@@H]1C(O)=C(C(N)=O)C(=O)[C@@]2(O)C(O)=C3C(=O)c4c(O)cccc4[C@@](C)(O)[C@H]3C[C@@H]12 | 30%
* CCc1cccc(C)c1N(C(=O)CCl)C(C)COC (stereo not shown) | 22%
* CC(C)N1C(=O)c2ccccc2NS1(=O)=O | 28%
* CCOC(=O)CC(SP(=S)(OC)OC)C(=O)OCC (stereo not shown) | 17%
* CCOP(=S)(OCC)Oc1nc(Cl)c(Cl)cc1Cl | 10%
